experiment: Cmax in NZBWF1/J mouse at 25 mg/kg, po; assay type: ADME, organism-based; parameters: dose 25 mg/kg, route oral; settings: in vivo
PARAMETER: Cmax (nM)
Answers are plain numbers, in nM.

So what's the measured Cmax for this one? Cc1c(Nc2c(C#N)cncc2/C=C/c2cccc(CN3CCN(C)CC3)n2)ccc2[nH]ccc12
2200

* * *

assay: AUC in NZBWF1/J mouse at 25 mg/kg, po; type: ADME, organism-based; design: dose 25 mg/kg, route oral; conditions: plasma
PARAMETER: AUC
Dear colleague, please send the value followed by its unit.

So what's the measured AUC for this one? Cc1c(Nc2c(C#N)cncc2/C=C/c2cccc(CN3CCN(C)CC3)n2)ccc2[nH]ccc12
17.8 µM·h

* * *

assay: Permeability by PAMPA; format: ADME; conditions: read-out: permeability
PARAMETER: Papp (×10⁻⁶ cm/s)
Answers are plain numbers, in ×10⁻⁶ cm/s.

So what's the measured Papp for this one? Cc1c(Nc2c(C#N)cncc2/C=C/c2cccc(CN3CCN(C)CC3)n2)ccc2[nH]ccc12
0.39

Reference source for all entries: ChEMBL document CHEMBL1155381
